Task for the reader: assign each of the following molecules its reported half-life.
experiment: Half-life in vitro in rat plasma; assay type: ADME
Quick reminder: number only, in s, skip the unit.

// half-life lookup, molecule = O=C(/N=C(/NCc1ccccc1)NC(=O)OCc1ccccc1)OCc1ccccc1 , result: 750

// half-life lookup, molecule = CC(C)(C)C(=O)OCOC(=O)/N=C(/NCc1ccccc1)NC(=O)OCOC(=O)C(C)(C)C , result: 67.2

// half-life lookup, molecule = O=C(Cc1ccccc1)OCOC(=O)/N=C(/NCc1ccccc1)NC(=O)OCOC(=O)Cc1ccccc1 , result: 7.8

// half-life lookup, molecule = O=C(/N=C(/NCc1ccccc1)NC(=O)Oc1ccccc1)Oc1ccccc1 , result: 27.6

* * *

test: Half-life in vitro in pig liver; format: ADME, tissue-based, Sus scrofa
experimental_readout: half-life

// half-life lookup, compound = NC(=O)CCCCCCN=C(N)N , result: < 5 min
